Give measured DHAP kcat for each item. Keep answers brief.
Test system: Triosephosphate Isomerase from Yeast
Assay type: biochemical, Saccharomyces cerevisiae
ASSAY_CONDITIONS: isomerization of DHAP; pH 7.5, 25 °C, I = 0.1 (NaCl)
// return numeric value only (unit: s^–1, not printed)

Reported DHAP kcat of Y208A (protein, UniProt P00942 2-248, looked up, variant Y208A) Triosephosphate isomerase: ARTFFVGGNFKLNGSKQSIKEIVERLNTASIPENVEVVICPPATYLDYSVSLVKKPQVTVGAQNAYLKASGAFTGENSVDQIKDVGAKWVILGHSERRSYFHEDDKFIADKTKFALGQGVGVILCIGETLEEKKAGKTLDVVERQLNAVLEEVKDWTNVVVAYEPVWAIGTGLAATPEDAQDIHASIRKFLASKLGDKAASELRILAGGSANGSNAVTFKDKADVDGFLVGGASLKPEFVDIINSRN : 210

Recorded result, Y208T/S211G (protein, UniProt P00942 2-248, looked up, variant Y208T S211G) Triosephosphate isomerase: ARTFFVGGNFKLNGSKQSIKEIVERLNTASIPENVEVVICPPATYLDYSVSLVKKPQVTVGAQNAYLKASGAFTGENSVDQIKDVGAKWVILGHSERRSYFHEDDKFIADKTKFALGQGVGVILCIGETLEEKKAGKTLDVVERQLNAVLEEVKDWTNVVVAYEPVWAIGTGLAATPEDAQDIHASIRKFLASKLGDKAASELRILTGGGANGSNAVTFKDKADVDGFLVGGASLKPEFVDIINSRN , DHAP kcat: 135

So for Y208T (protein, UniProt P00942 2-248, looked up, variant Y208T) Triosephosphate isomerase: ARTFFVGGNFKLNGSKQSIKEIVERLNTASIPENVEVVICPPATYLDYSVSLVKKPQVTVGAQNAYLKASGAFTGENSVDQIKDVGAKWVILGHSERRSYFHEDDKFIADKTKFALGQGVGVILCIGETLEEKKAGKTLDVVERQLNAVLEEVKDWTNVVVAYEPVWAIGTGLAATPEDAQDIHASIRKFLASKLGDKAASELRILTGGSANGSNAVTFKDKADVDGFLVGGASLKPEFVDIINSRN , the logged DHAP kcat turned out to be 580

# credit: paper PMC4694050
